meta.source: patent US10766952B2

target-system: T1, rat α-CGRP (Rattus norvegicus, UniProt P01256)
T1 construct: rat α (1-37); host or cells: synthetic peptide
T1 sequence (P01256 83-119 limits assumed): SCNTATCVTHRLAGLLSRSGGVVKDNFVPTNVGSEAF
assay-remarks: Biacore affinity of antibody G1 Fab and variants to rat α-CGRP
Assay type: binding
condition-label: 37° C., Fab, screening mode unless underlined
Labelling field: enter yes if recorded α-rat koff is less than 0.004 s⁻¹. Enter no if it equals or exceeds that cut-off.

Say whether its α-rat koff is strictly beneath 0.004 s⁻¹. Entry: M63: G1 variant: L1 R28N,T30G; L2 G50A; H2 E54K,A57N,S58T; HC-FW3 L99T,A100V (antibody, V domains shown) VH: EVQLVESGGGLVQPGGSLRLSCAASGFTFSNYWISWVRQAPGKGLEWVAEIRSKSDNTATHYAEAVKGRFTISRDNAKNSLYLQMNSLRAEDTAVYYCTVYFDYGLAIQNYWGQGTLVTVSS VL: EIVLTQSPATLSLSPGERATLSCKASKNVGTYVSWYQQKPGQAPRLLIYAASNRYLGIPARFSGSGSGTDFTLTISSLEPEDFAVYYCSQSYNYPYTFGQGTKLEIK yes

Just wondering, is α-rat koff of M59: G1 variant: L1 R28N,T30D; L2 L56S; H2 E54K,A57N,S58N,H61F; HC-FW3 L99T,A100V (antibody, V domains shown) VH: EVQLVESGGGLVQPGGSLRLSCAASGFTFSNYWISWVRQAPGKGLEWVAEIRSKSDNNATFYAEAVKGRFTISRDNAKNSLYLQMNSLRAEDTAVYYCTVYFDYGLAIQNYWGQGTLVTVSS VL: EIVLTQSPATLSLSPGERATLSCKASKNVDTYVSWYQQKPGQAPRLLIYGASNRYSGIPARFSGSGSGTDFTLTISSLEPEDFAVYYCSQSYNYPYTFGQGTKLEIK below 0.004 s⁻¹? no

Determine if M79: G1 variant: L1 R28N,T30S; L2 G50A,L56T; H2 E54K,A57P; HC-FW3 L99T,A100V (antibody, V domains shown) VH: EVQLVESGGGLVQPGGSLRLSCAASGFTFSNYWISWVRQAPGKGLEWVAEIRSKSDPSATHYAEAVKGRFTISRDNAKNSLYLQMNSLRAEDTAVYYCTVYFDYGLAIQNYWGQGTLVTVSS VL: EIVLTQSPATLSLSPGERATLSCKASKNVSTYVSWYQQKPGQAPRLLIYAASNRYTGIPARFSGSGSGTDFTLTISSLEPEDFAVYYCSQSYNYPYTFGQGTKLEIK shows α-rat koff strictly lower than 0.004 s⁻¹. no

Lab log: compare recorded α-rat koff with 0.004 s⁻¹; is it strictly lower for M71: G1 variant: L1 R28N,T30G; L2 L56I; H2 E54K,A57Y; HC-FW3 L99T,A100V (antibody, V domains shown) VH: EVQLVESGGGLVQPGGSLRLSCAASGFTFSNYWISWVRQAPGKGLEWVAEIRSKSDYSATHYAEAVKGRFTISRDNAKNSLYLQMNSLRAEDTAVYYCTVYFDYGLAIQNYWGQGTLVTVSS VL: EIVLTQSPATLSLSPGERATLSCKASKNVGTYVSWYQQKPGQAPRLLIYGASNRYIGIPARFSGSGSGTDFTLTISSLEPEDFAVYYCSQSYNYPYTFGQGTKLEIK ? yes

Input M52: G1 variant: L1 R28N; L2 L56I; H2 E54K,A57N,S58A; HC-FW3 L99T,A100V (antibody, V domains shown) VH: EVQLVESGGGLVQPGGSLRLSCAASGFTFSNYWISWVRQAPGKGLEWVAEIRSKSDNAATHYAEAVKGRFTISRDNAKNSLYLQMNSLRAEDTAVYYCTVYFDYGLAIQNYWGQGTLVTVSS VL: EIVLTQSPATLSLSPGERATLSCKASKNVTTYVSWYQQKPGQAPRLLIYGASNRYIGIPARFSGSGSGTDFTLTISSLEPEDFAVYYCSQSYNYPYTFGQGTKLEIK ; condition: α-rat koff strictly below 0.004 s⁻¹. Does it hold? yes
